Listed here: compounds with reported IC50 for Cytochrome P450 2D6 (Homo sapiens, UniProt P10635).
One number for each entry, in µM.

smilesText	IC50 [µM]
Cc1c(Cl)cccc1N1CCN(CCCNC(=O)c2nc(-c3ccccc3)n(-c3ccccc3)c2Cn2cncn2)CC1	4.8

Now take the following compound into account.
Query: What value of IC50 has been reported for the following compound? Cc1c(Cl)cccc1N1CCN(CCCNC(=O)c2nc(-c3ccccc3)n(-c3ccccc3)c2C)CC1
Reply: 5.4

====

- protocolText: in vitro
- measurementConditions: mouse, ht-22
- Description: Cytotoxicity against mouse HT22 cells after 48 hrs by MTT assay
Give CC50 at 48 h for every item shown.
Numbers only, in µM.

smilesText	unitSpec	CC50 at 48 h
Cc1cccc(N2CCN(CCCNC(=O)c3nc(C)n(-c4ccc5c(c4)OCCO5)c3C)CC2)c1C	µM	19.3
Cc1c(Cl)cccc1N1CCN(CCCNC(=O)c2nc(-c3ccccc3)n(-c3ccccc3)c2Cn2cncn2)CC1	µM	19.1

Now take the following compound into account.
Query: What value of CC50 at 48 h has been reported for the following compound? Cc1c(Cl)cccc1N1CCN(CCCNC(=O)c2nc(-c3ccccc3)n(-c3ccccc3)c2C)CC1
Reply: 23.6

====

- targetOrTestSystem: 5-hydroxytryptamine receptor 6 (Homo sapiens, UniProt P50406)
- Sequence (P50406 whole entry): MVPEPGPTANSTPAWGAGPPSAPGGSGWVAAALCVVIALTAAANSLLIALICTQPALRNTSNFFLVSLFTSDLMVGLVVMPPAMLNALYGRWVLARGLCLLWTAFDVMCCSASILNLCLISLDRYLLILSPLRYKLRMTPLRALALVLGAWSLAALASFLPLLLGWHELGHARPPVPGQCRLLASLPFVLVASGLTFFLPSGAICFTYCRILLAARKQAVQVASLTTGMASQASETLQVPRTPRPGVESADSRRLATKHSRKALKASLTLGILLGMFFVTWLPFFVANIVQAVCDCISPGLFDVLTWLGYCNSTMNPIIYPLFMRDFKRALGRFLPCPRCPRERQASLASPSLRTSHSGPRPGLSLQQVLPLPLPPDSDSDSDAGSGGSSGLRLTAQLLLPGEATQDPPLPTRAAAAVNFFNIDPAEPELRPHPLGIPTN
assayMetric: pIC50
Answers are plain numbers, as −log10 of the molar value.

Query: What value of pIC50 has been reported for the following compound? Cc1nc(C(=O)NCCN2CCN(c3cccc(Cl)c3Cl)CC2)c(C)n1-c1ccccc1
Reply: 5.77

====

Listed here: compounds with reported IC50 for Cytochrome P450 3A4 (Homo sapiens, UniProt P08684).

smilesText	IC50
Cc1c(Cl)cccc1N1CCN(CCCNC(=O)c2nc(-c3ccccc3)n(-c3ccccc3)c2C)CC1	> 20 µM

Now take the following compound into account.
Query: What value of IC50 has been reported for the following compound? Cc1c(Cl)cccc1N1CCN(CCCNC(=O)c2nc(-c3ccccc3)n(-c3ccccc3)c2Cn2cncn2)CC1
Reply: > 20 µM

====

- targetOrTestSystem: 5-hydroxytryptamine receptor 2C (Homo sapiens, UniProt P28335)
- Sequence (P28335 whole entry): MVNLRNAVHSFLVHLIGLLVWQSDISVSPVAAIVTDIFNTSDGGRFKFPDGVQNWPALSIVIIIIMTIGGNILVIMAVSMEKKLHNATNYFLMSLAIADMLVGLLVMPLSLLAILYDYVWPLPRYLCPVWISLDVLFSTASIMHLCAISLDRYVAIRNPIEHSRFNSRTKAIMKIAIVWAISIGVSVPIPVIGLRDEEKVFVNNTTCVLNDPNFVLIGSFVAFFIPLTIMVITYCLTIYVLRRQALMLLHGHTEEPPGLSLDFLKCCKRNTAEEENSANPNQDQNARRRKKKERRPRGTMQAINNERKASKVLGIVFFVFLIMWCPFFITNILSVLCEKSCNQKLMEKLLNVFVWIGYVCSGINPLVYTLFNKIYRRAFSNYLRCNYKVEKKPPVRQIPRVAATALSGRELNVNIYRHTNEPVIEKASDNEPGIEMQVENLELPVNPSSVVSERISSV
- protocolText: biochemical
- Description: Displacement of [3H]mesulergine from human recombinant 5-HT2C receptor expressed in CHO-K1 cells
assayMetric: IC50 (nM)
Numbers only, in nM.

Below, each entry is followed by its recorded IC50 result.
compound	IC50, nM
Cc1c(Cl)cccc1N1CCN(CC(O)CNC(=O)c2nc(-c3ccccc3)n(-c3ccccc3)c2C)CC1 (configuration not stated)	739
CCCc1nc(C(=O)NCCCN2CCN(c3cccc(Cl)c3Cl)CC2)c(C)n1-c1ccccc1F	189
CCCc1nc(C(=O)NCC(O)CN2CCN(c3cccc(C)c3C)CC2)c(C)n1-c1ccc(F)cc1 (configuration not stated)	1000
Cc1cccc(N2CCN(CC(O)CNC(=O)c3nc(C)n(-c4ccc5c(c4)OCCO5)c3C)CC2)c1C (configuration not stated)	610
Cc1c(Cl)cccc1N1CCN(CC(O)CNC(=O)c2nc(C)n(-c3ccc4c(c3)OCCO4)c2C)CC1 (configuration not stated)	663

Please state, for each entry, its recorded IC50.
1. Cc1nc(C(=O)NCCCN2CCN(c3cccc(Cl)c3Cl)CC2)c(C)n1-c1ccccc1C(F)(F)F
2. COc1ccc(-n2c(C)nc(C(=O)NCCCN3CCN(c4cccc(C)c4C)CC3)c2C)cc1
3. COc1ccc(-n2c(C)nc(C(=O)NCC(O)CN3CCN(c4cccc(Cl)c4C)CC3)c2C)cc1 (configuration not stated)
4. CCCc1nc(C(=O)NCCCN2CCN(c3cccc(Cl)c3C)CC2)c(C)n1-c1ccccc1OC
5. CCCc1nc(C(=O)NCCCN2CCN(c3cccc(Cl)c3Cl)CC2)c(C)n1-c1ccc2c(c1)OCCO2
6. CCCc1nc(C(=O)NCC(O)CN2CCN(c3cccc(Cl)c3Cl)CC2)c(C)n1-c1ccc(F)cc1 (configuration not stated)

Reply:
1. 155
2. 191
3. 323
4. 473
5. 297
6. 1510

====

- targetOrTestSystem: 5-hydroxytryptamine receptor 7 (Homo sapiens)
- Sequence (P34969 whole entry): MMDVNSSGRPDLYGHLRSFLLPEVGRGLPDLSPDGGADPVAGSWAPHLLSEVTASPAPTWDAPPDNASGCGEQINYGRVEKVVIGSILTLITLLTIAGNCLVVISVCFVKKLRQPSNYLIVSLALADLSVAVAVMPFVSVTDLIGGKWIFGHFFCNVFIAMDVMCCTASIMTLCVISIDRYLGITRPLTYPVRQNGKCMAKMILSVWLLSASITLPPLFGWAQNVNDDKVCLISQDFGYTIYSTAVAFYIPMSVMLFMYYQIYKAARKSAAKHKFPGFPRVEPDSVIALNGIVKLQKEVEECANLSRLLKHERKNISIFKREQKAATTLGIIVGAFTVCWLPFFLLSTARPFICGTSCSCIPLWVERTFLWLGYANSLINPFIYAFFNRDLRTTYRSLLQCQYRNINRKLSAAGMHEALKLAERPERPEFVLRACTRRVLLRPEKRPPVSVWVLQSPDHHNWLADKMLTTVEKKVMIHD
Give pIC50 for every item shown.
Numbers only, as −log10 of the molar value.

smilesText	testValue
Cc1nc(C(=O)NCCN2CCN(c3cccc(Cl)c3Cl)CC2)c(C)n1-c1ccccc1	8.17

Now take the following compound into account.
Query: What value of pIC50 has been reported for the following compound? Cc1nc(C(=O)NCCCN2CCN(c3cccc(Cl)c3Cl)CC2)c(C)n1-c1ccccc1
Reply: 7.96

====

Sequence of the target: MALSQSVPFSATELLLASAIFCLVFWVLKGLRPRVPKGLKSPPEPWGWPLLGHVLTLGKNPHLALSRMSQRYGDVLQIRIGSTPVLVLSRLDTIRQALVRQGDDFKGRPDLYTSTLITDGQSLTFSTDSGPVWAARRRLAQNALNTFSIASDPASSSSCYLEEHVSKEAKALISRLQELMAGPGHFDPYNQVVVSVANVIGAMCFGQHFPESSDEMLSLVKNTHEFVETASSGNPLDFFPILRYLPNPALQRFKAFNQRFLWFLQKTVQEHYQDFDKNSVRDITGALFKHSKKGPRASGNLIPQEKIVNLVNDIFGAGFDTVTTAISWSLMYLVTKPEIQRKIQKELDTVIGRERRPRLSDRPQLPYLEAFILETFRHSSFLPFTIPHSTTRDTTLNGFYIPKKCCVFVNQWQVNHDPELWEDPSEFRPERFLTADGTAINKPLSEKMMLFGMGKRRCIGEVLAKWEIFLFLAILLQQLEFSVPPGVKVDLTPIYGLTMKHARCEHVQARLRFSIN
Give IC50 for every item shown.

smilesText	IC50
Cc1c(Cl)cccc1N1CCN(CCCNC(=O)c2nc(-c3ccccc3)n(-c3ccccc3)c2Cn2cncn2)CC1	15.3 µM

Query: What value of IC50 has been reported for the following compound? Cc1cccc(N2CCN(CCCNC(=O)c3nc(C)n(-c4ccc5c(c4)OCCO5)c3C)CC2)c1C
Reply: > 20 µM

====

- targetOrTestSystem: Cytochrome P450 2C9 (Homo sapiens)
- Sequence (P11712 whole entry): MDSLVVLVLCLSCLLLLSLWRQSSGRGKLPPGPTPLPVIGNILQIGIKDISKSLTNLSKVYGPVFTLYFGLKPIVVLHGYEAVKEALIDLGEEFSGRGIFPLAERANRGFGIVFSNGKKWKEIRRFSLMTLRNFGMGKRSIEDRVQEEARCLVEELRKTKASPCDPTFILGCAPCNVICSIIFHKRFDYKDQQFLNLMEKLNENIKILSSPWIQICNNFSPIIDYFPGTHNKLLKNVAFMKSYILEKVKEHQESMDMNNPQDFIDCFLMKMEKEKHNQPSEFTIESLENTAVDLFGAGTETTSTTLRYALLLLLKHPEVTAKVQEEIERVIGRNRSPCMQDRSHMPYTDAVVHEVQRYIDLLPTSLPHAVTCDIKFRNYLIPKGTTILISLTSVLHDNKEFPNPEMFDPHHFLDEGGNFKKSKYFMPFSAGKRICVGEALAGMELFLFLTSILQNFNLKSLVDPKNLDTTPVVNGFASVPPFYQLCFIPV
Give pIC50 for every item shown.
One number for each entry, as −log10 of the molar value.

smilesText	pIC50
Cc1c(Cl)cccc1N1CCN(CCCNC(=O)c2nc(-c3ccccc3)n(-c3ccccc3)c2C)CC1	5.54

Now take the following compound into account.
Query: What value of pIC50 has been reported for the following compound? Cc1cccc(N2CCN(CCCNC(=O)c3nc(C)n(-c4ccc5c(c4)OCCO5)c3C)CC2)c1C
Reply: 5.36

====

- targetOrTestSystem: UniProtKB P28335
- protocolText: biochemical
assayMetric: pIC50
Numbers only, as −log10 of the molar value.

compound	testValue
Cc1cccc(N2CCN(CC(O)CNC(=O)c3nc(-c4ccccc4)n(-c4ccc(F)cc4)c3C)CC2)c1C (stereo not drawn)	6.73
COc1ccc(-n2c(-c3ccccc3)nc(C(=O)NCCCN3CCN(c4cccc(C)c4C)CC3)c2C)cc1	7.02
Cc1cccc(N2CCN(CCCNC(=O)c3nc(C)n(-c4ccc5c(c4)OCCO5)c3C)CC2)c1C	5.40
CCCc1nc(C(=O)NCCCN2CCN(c3cccc(C)c3C)CC2)c(C)n1-c1ccccc1OC	6.55
Cc1nc(C(=O)NCC(O)CN2CCN(c3cccc(Cl)c3Cl)CC2)c(C)n1-c1ccccc1F (stereo not drawn)	6.34
Cc1c(Cl)cccc1N1CCN(CCCNC(=O)c2nc(-c3ccccc3)n(-c3ccccc3)c2C)CC1	5.82
Cc1c(Cl)cccc1N1CCN(CCCNC(=O)c2nc(C)n(CC(C)C)c2C)CC1	5.65
Cc1cccc(N2CCN(CCCNC(=O)c3nc(-c4ccccc4)n(-c4ccc5c(c4)OCCO5)c3C)CC2)c1C	7.17

Please state, for each entry, its recorded pIC50.
1. CCCc1nc(C(=O)NCC(O)CN2CCN(c3cccc(C)c3C)CC2)c(C)n1-c1ccc(Cl)cc1 (stereo not drawn)
2. Cc1c(Cl)cccc1N1CCN(CCCNC(=O)c2nc(-c3ccccc3)n(-c3ccc(F)cc3)c2C)CC1
3. COc1ccc(-n2c(C)nc(C(=O)NCC(O)CN3CCN(c4cccc(C)c4C)CC3)c2C)cc1 (stereo not drawn)

Reply:
6.18
5.65
6.26

Please state, for each entry, its recorded pIC50.
1. COc1ccc(-n2c(-c3ccccc3)nc(C(=O)NCC(O)CN3CCN(c4cccc(C)c4C)CC3)c2C)cc1 (stereo not drawn)
2. Cc1c(Cl)cccc1N1CCN(CCCNC(=O)c2nc(-c3ccccc3)n(-c3ccccc3)c2Cn2cncn2)CC1
3. COc1ccc(-n2c(-c3ccccc3)nc(C(=O)NCCCN3CCN(c4cccc(Cl)c4C)CC3)c2C)cc1
4. Cc1cccc(N2CCN(CCCNC(=O)c3cn(-c4ccccc4)c(-c4ccccc4)n3)CC2)c1C
5. Cc1c(Cl)cccc1N1CCN(CCCNC(=O)c2nc(C)n(C3CCCC3)c2C)CC1
6. CCCc1nc(C(=O)NCCCN2CCN(c3cccc(Cl)c3C)CC2)c(C)n1-c1ccc2c(c1)OCCO2
7. Cc1cccc(N2CCN(CCCNC(=O)c3nc(C)n(-c4ccc(Cl)cc4)c3C)CC2)c1C

Reply:
1: 6.22; 2: 5.86; 3: 7.11; 4: 6.94; 5: 5.36; 6: 7.21; 7: 6.63

Ref: ChEMBL document CHEMBL1821711
